Entries and their λabs
- Assay Procedure: Absorption and emission properties of HBR-binding PYP variants in presence of HBR
- Type: physicochemical
- Setup Conditions: variant with HBR, PBS pH 7.4
Endpoint: λabs (nm)

{"Molecule": "Clone 4: fluorescent HBR-binding PYP variant, SEQ ID NO: 4, residues 94-101 WDIPTNPE (protein, Functional derivative of SEQ ID NO: 48 - Clone 4) MEHVAFGSEDIENTLAKMDDGQLDGLAFGAIQLDGDGNILQYNAAEGDITGRDPKQVIGKNFFKDVAPGTDSPEFYGKFKEGVASGNLNTMFEWDIPTNPEPTKVKVHMKKALSGDSYWVFVKRV", "Unit Spec": "nm", "Meas Value": 468}
{"Molecule": "Clone 2: fluorescent HBR-binding PYP variant, SEQ ID NO: 2, residues 94-101 WLIPTLPQ (protein, Functional derivative of SEQ ID NO: 48 - Clone 2) MEHVAFGSEDIENTLAKMDDGQLDGLAFGAIQLDGDGNILQYNAAEGDITGRDPKQVIGKNFFKDVAPGTDSPEFYGKFKEGVASGNLNTMFEWLIPTLPQPTKVKVHMKKALSGDSYWVFVKRV", "Unit Spec": "nm", "Meas Value": 466}
{"Molecule": "Clone 6: fluorescent HBR-binding PYP variant, SEQ ID NO: 6, residues 94-101 WLIPTRNA (protein, Functional derivative of SEQ ID NO: 48 - Clone 6) MEHVAFGSEDIENTLAKMDDGQLDGLAFGAIQLDGDGNILQYNAAEGDITGRDPKQVIGKNFFKDVAPGTDSPEFYGKFKEGVASGNLNTMFEWLIPTRNAPTKVKVHMKKALSGDSYWVFVKRV", "Unit Spec": "nm", "Meas Value": 467}
